# Assay System: T1, ZFP SBS#1354 (synthetic, UniProt P08047)
# T1 chain: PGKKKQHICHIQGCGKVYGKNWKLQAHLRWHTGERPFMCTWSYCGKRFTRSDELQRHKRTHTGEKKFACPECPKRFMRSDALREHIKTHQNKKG
# Assay Notes: EMSA
# Condition Notes: tags: MBP fusion
pKd: −log10 of the molar value.
Measurement Name: pKd

In [3]: df
Out[3]:
                                     binder  number
0  CTGGCGAGA (dsDNA) DNA 1: CTGGCGAGA DNA 2: TCTCGCCAG    7.68

These entries and their values trace back to patent US20030068675.
